Values compiled from patent US20230012273A1.

Assay Target: T1, Human SIRPαV2 (CAA71403.1), Extracellular Domain + His-Tag (human, UniProt P78324 31-373)
T1 construct: also called huSIRPαV2; hSIRPαV2; not shown: His-Tag
T1 sequence (P78324 other isoform, or with tags, fused parts or gaps): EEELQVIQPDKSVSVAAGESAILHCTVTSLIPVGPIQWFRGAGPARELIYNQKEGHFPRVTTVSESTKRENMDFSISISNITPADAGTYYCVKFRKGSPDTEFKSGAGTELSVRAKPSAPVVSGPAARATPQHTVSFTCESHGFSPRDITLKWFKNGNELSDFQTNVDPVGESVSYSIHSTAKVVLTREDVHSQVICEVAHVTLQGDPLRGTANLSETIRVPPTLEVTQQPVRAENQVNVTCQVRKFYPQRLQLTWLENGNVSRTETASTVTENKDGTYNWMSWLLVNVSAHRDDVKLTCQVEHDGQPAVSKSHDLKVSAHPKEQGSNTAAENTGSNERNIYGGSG
Assay Protocol: SPR, antibody captured on Protein A/G, ECD-His analyte, 1:1 fit
Readout Name: kon

>>> result("Antibody E15 (antibody, human IgG1, kappa, L234A L235A, V domains shown) VH: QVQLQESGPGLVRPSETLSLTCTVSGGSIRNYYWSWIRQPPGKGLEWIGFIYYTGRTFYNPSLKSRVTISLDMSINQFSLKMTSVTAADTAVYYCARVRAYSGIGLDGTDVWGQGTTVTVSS VL: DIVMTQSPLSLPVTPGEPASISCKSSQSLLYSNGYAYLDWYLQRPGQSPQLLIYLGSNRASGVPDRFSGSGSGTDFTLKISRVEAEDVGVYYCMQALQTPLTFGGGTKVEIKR")
"501000 M⁻¹ s⁻¹"
>>> result("Antibody E10 (antibody, human IgG1, kappa, L234A L235A, V domains shown) VH: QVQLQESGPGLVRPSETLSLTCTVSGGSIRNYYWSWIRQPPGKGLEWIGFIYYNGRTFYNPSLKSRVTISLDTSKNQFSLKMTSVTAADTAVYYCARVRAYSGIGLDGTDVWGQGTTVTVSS VL: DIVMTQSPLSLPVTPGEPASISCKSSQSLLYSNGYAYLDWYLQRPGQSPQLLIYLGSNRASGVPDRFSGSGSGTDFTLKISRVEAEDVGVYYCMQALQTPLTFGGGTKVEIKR")
"498000 M⁻¹ s⁻¹"
>>> result("Antibody E11 (antibody, human IgG1, kappa, L234A L235A, V domains shown) VH: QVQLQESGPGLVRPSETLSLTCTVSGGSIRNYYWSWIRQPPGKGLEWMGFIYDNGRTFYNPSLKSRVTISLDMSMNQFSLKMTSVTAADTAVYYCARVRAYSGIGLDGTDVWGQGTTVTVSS VL: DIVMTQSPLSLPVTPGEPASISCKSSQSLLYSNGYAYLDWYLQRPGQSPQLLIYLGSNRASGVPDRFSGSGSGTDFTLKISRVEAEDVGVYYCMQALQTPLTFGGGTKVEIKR")
"453000 M⁻¹ s⁻¹"
>>> result("Antibody A8 (antibody, human IgG1, kappa, L234A L235A, V domains shown) VH: EVQLVESGGGLVQPGGSLRLSCAASGFTLSSYDMHWVRQAPGKGLEWVSAIGTAGDTYYTGSVKGRFTISRENAKNSLYLQMNSLRAGDTAVYYCVRGGVWDDAFDIWGQGTMVTVSS VL: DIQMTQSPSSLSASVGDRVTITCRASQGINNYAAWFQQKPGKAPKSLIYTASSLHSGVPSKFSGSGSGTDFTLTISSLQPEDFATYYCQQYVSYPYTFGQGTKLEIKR")
"859000 M⁻¹ s⁻¹"
